target: T1, rat collagen, acid soluble, type I, rat tail (Upstate 08-115) (rat, UniProt P02454 152-1207; P02466 86-1125); test: dried collagen assay
T1 construct: tissue extract, gelled and dried in wells; also called dried rat collagen
T1 sequence (P02454 152-1207, chain 1 of 2): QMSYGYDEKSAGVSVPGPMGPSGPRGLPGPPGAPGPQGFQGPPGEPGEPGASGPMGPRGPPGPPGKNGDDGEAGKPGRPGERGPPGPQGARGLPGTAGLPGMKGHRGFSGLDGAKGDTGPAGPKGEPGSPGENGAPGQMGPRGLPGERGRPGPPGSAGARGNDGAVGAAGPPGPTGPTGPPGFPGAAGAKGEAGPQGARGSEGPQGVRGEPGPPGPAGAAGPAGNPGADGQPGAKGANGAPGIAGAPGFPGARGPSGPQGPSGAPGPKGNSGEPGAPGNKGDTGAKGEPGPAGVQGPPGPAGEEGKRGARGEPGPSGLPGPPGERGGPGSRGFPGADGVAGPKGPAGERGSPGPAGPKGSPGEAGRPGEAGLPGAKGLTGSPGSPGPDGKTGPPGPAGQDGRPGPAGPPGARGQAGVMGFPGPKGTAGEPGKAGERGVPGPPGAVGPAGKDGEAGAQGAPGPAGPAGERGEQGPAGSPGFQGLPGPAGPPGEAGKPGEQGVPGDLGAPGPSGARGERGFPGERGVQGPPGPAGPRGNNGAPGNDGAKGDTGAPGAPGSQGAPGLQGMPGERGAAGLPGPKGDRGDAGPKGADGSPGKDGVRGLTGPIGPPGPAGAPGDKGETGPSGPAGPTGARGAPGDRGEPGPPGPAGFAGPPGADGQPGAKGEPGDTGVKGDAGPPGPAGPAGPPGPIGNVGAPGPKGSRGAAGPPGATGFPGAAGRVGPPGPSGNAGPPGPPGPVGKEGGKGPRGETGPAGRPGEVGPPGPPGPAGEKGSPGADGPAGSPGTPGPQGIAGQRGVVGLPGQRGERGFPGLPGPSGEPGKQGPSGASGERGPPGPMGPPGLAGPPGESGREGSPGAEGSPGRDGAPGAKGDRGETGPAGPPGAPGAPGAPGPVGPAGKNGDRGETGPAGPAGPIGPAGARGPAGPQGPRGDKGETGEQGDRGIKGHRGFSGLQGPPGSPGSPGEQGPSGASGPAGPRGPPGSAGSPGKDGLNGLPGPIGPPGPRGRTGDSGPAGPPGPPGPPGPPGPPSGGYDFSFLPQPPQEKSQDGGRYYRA
T1 sequence (P02466 86-1125, chain 2 of 2): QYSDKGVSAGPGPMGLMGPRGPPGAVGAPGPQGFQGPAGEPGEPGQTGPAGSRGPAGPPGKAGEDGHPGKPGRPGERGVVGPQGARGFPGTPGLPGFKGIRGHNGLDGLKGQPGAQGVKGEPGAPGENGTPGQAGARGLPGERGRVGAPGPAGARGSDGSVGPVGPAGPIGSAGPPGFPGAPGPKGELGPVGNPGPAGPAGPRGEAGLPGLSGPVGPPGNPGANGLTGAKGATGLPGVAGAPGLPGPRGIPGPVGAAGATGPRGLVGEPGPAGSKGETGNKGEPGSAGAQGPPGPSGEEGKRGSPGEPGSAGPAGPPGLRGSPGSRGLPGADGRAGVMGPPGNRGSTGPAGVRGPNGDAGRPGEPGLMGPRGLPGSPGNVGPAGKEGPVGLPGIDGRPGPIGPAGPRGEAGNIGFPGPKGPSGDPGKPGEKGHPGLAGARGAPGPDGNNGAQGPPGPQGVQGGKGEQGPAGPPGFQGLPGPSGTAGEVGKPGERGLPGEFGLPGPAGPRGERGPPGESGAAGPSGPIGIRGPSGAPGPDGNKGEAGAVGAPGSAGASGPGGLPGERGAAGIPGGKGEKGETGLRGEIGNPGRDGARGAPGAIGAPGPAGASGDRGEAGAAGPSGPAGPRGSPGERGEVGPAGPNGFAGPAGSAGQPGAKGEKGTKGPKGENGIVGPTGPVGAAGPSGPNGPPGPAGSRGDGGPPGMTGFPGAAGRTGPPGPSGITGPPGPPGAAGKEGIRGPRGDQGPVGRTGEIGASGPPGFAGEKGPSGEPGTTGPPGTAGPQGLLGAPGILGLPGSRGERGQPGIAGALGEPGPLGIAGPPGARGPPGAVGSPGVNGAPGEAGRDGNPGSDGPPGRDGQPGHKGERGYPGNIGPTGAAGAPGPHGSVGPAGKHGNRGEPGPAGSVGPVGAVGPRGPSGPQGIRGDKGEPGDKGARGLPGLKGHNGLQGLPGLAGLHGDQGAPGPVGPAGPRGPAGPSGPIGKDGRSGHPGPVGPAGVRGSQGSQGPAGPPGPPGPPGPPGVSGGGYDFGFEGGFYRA
Bridge positions count the residues as written; N and C are the ends. Square brackets hold non-standard residues; d marks the D form. Primed or numbered codes have the meaning given here. Side chains are listed from the residue outwards. Ends that are not written are not given here. Bip = N[C@@H](Cc1ccc(-c2ccccc2)cc1)C(=O)O; K(Gd^T)Gd^T = not defined here; Gd^T = not defined here; Gd^T″ = GdDTPA-thiourea; Aib = CC(C)(N)C(=O)O
Entries and their % bound values follow.
# unit: % | format: bare number

{Gd^T}-DWTCSGDEYTWHCNY[Aib] (disulfide 4-13; not fully specified (C-terminus); reading uncertain) [Compound ID 850]	67
{Gd^T″}-GAWHCTTLFPHH[dY]CLYG (disulfide 5-14 (inferred); not fully specified (C-terminus)) [Compound ID 908]	0
{Gd^T″}-GQWHCTTRFPHHYCLYGK(K(Gd^T)Gd^T) (disulfide 5-14 (inferred); reading uncertain) [Compound ID 955]	36
{Gd^T″}-GK([Gly-Gd^T″])WHCYTK(Gd^T″)FPHHYCLYGK(Gd^T″) (disulfide 5-14 (inferred)) [Compound ID 995]	42

Next item in the queue.
% bound for {Gd^T″}-GK([Gly-Gd^T″])WHCTTK(Gd^T″)FPHHYCLY[Bip] (disulfide 5-14; not fully specified (C-terminus), also called Comp ID No:800) [Compound ID 800] ? 88
